system: CAF#7 (primary prostate cancer-associated fibroblasts of myCAF-like type); test: drug sensitivity score (DSS2, normalised partial AUC of dose-response, 72 h CellTiter-Glo viability) (DSS (dimensionless)); higher = more sensitive (stronger growth inhibition / cytotoxicity); extreme values may be limits of the assay
The class of a record is decided solely by its measured drug sensitivity score; consult LOW (below 0.7), MEDIUM (0.7 to below 4), HIGH (4 or more)

Which drug sensitivity score band matches C[C@@H]1CN(CC(=O)Nc2ccc3c(c2)Cc2cccc(-c4cc(=O)cc(N5CCOCC5)o4)c2S3)C[C@H](C)O1 (tested concentration range 2.5-25000 nM) ? LOW

Which drug sensitivity score band matches CC(=O)Nc1cccc(-n2c(=O)n(C3CC3)c(=O)c3c(Nc4ccc(I)cc4F)n(C)c(=O)c(C)c32)c1 [Trametinib] (tested concentration range 0-250 nM) ? HIGH

Which drug sensitivity score band matches O=C(/C=C\n1cnc(-c2cc(C(F)(F)F)cc(C(F)(F)F)c2)n1)NNc1cnccn1 [Selinexor] (tested concentration range 1-10000 nM) ? HIGH

Which drug sensitivity score band matches O=C(NCc1ccncc1)C12CC3CC(C1)CC(c1ccc(Cl)cc1)(C3)C2 [Opaganib] (tested concentration range 5-50000 nM) ? LOW

Which drug sensitivity score band matches CC[C@@H]1C(=O)N(C)c2cnc(Nc3ccc(C(=O)N[C@H]4CC[C@H](N5CCN(CC6CC6)CC5)CC4)cc3OC)nc2N1C(C)C [Volasertib] (tested concentration range 0.1-1000 nM) ? MEDIUM

Which drug sensitivity score band matches CC(=O)OC[C@H]1O[C@@H]([S-])[C@H](OC(C)=O)[C@@H](OC(C)=O)[C@@H]1OC(C)=O.CCP(CC)CC.[Au+] [Auranofin] (tested concentration range 0.2-2500 nM) ? HIGH

Which drug sensitivity score band matches Cc1ccc(=O)n(-c2ccccc2)c1 [Pirfenidone] (tested concentration range 1-10000 nM) ? LOW

Which drug sensitivity score band matches C[C@H](Nc1ncnc2nc[nH]c12)c1cc2cccc(Cl)c2c(=O)n1-c1ccccc1 [Duvelisib] (tested concentration range 0-500 nM) ? MEDIUM
